The measurements presented in this section are drawn from the supplement of paper PMC12783771.

B1: library; numbered along this chain (parent)
chain: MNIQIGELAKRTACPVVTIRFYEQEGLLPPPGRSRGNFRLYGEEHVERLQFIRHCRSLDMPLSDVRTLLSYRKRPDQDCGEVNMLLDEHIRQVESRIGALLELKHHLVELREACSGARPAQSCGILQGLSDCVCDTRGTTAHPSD

# Variants of: B1
# Protocol Description: sfGFP reporter fluorescence (15 h) (µM FITC); higher = stronger transcriptional activation
# Experimental Parameters: library round: Round 0; ligand: 30 µM Zn
Readout Label: sfGFP reporter fluorescence
Numbers only.

Solved cases (3 shown):
Sequence Change: L85S
Endpoint Result: 0.0627
--
Sequence Change: L28H
Endpoint Result: 0.0563
--
Sequence Change: I125N
Endpoint Result: 0.055

# ---- query variant ----
Input line: Returns the measured sfGFP reporter fluorescence for the input variant. Input: I125Q
Output line: 0.055
